meta.source: patent US20250320312A1

biological target: Peptide 5: Biotin-…-[Tyr(PC)]-acid; test: scFv ELISA
Sequence (peptide, as listed by the source): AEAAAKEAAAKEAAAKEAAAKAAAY
OUTCOME MEASURE: OD450 (OD450)
Form entry: value (OD450) — number only.

>>> measurement("PcOxP_DB03_A11 (scFv, V domains shown, scFv in periplasmic extract) VH: EVQLLESGGGLVQPGGSLRLSCAASGFTFSSYYMEWVRQAPGKGLEWVAASRNQANDYTTEYADSVKGRFTISRDNSKNTLYLQMNSLRAEDTAVYYCARDYYGSSYWYLDVWGQGTLVTVSS VL: DIQMTQSPSSLSASVGDRVTITCTASESLYSSKHKVHYLAWYQQKPGKAPKLLIYGADNRYIGVPSRFSGSGSGTDFTLTISSLQPEDFATYYCAQFYHYPLTFGGGTKVEIK")
1.08

Then this binder:
Query: Check the records and state OD450 for PcOxP_DB03_A06 (scFv, V domains shown, scFv in periplasmic extract) VH: EVQLLESGGGLVQPGGSLRLSCAASGFTFSSYYMEWVRQAPGKGLEWVAASRSKANDYTTEYADSVKGRFTISRDNSKNTLYLQMNSLRAEDTAVYYCARDYYGSQYWYFDVWGQGTLVTVSS VL: DIVMTQSPDSLAVSLGERATINCTASESLYSNKHKVHYLAWYQQKPGQPPKLLIYGASNRYIGVPDRFSGSGSGTDFTLTISSLQAEDVAVYYCAQFYSYPLTFGGGTKVEIK
Response: 1.07
